Values were extracted from patent US20240300941A1.

assayedSystem: HPK1 (Homo sapiens (Human), UniProt Q92918)
Sequence (Q92918 whole entry): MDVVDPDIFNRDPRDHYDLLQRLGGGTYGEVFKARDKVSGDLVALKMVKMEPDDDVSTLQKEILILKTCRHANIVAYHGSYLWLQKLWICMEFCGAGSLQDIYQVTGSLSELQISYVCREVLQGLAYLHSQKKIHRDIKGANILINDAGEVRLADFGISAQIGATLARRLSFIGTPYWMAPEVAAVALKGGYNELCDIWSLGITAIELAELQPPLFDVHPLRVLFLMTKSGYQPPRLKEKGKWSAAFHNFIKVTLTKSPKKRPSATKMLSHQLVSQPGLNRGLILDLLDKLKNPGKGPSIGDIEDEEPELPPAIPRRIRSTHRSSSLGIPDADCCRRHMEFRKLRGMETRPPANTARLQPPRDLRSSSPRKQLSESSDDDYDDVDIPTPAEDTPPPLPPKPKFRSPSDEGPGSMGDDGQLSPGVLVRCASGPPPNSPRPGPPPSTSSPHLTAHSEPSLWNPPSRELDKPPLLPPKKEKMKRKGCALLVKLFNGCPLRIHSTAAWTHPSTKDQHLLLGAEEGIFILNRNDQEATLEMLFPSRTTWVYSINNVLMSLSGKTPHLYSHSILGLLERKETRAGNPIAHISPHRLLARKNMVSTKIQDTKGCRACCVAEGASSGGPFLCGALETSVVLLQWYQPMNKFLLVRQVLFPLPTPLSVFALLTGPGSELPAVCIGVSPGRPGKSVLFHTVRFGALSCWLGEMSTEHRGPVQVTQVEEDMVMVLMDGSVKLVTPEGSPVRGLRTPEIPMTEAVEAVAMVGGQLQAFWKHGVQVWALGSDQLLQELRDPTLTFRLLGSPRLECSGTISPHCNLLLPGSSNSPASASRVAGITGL
pIC50: −log10 of the molar value.
measureName: pIC50

Examples with their reported pIC50 follow.
CC(C)c1ncc(-c2cnc(N)c(OCc3cc(C#CC(C)(C)O)ccc3F)c2)s1    > 7.00
CN1CCC(c2ncc(-c3cnc(N)c(OCc4cc(C#CC(C)(C)O)cc(CN)c4)c3)s2)CC1    > 7.00
COc1ccc(C#CC(C)(C)O)cc1COc1cc(-c2cnc(C3CCN(C)CC3)s2)cnc1N    > 7.00
CN1CCC(c2ncc(-c3cnc(N)c(OCc4ccccc4)c3)s2)CC1    6.00 to 7.00

Please report pIC50 for every entry that follows.
1. Cc1nc(C2CCN(C)CC2)sc1-c1cnc(N)c(OCc2ccncc2)n1
2. Nc1ncc(-c2cnn(C3CCOCC3)c2)cc1OCc1cccc(C#CC2(O)CC2)c1
3. CC(C)(O)C#Cc1cccc(COc2cc(-c3cnc(C4CCN(CC(F)(F)F)CC4)s3)cnc2N)c1
4. CC(C)(O)C#Cc1cccc(COc2cc(-c3cnc(C4CCCCN4)s3)cnc2N)c1 (centres unmarked)
5. CN1CCC(c2ncc(-c3cnc(N)c(OCc4cc(C#CC(C)(C)O)ccc4C(F)(F)F)c3)s2)CC1
6. CN1CCN(c2ncc(-c3cnc(N)c(OCc4cccc(C#CC(C)(C)O)c4)c3)s2)CC1

1: 6.00 to 7.00; 2: > 7.00; 3: > 7.00; 4: > 7.00; 5: > 7.00; 6: > 7.00

Hey, can you go through the list below and give me pIC50 for every item?
1. CC(C)c1ncc(-c2cnc(N)c(OCc3cncc(C#CC(C)(C)O)c3)c2)s1
2. CN1CCC(c2ncc(-c3cnc(N)c(OCc4ccnc(C#N)c4)c3)s2)CC1
3. CC1CN(c2ncc(-c3cnc(N)c(OCc4cccc(C#CC(C)(C)O)c4)c3)s2)CCN1C (centres unmarked)
4. CC(C)(O)C#Cc1ccc(F)c(COc2cc(-c3cnc(C4CCNCC4)s3)cnc2N)c1

6.00 to 7.00
6.00 to 7.00
> 7.00
> 7.00

For each of the items listed, what is its pIC50?
1. CC(C)(O)C#Cc1ccc(CN)c(COc2cc(-c3cnc(C4CCOCC4)s3)cnc2N)c1
2. C#Cc1cc(COc2cc(-c3cnc(C4CCN(C)CC4)s3)cnc2N)ccn1
3. CN1CCC(c2ncc(-c3cnc(N)c(OCc4cc(C#CC(C)(C)O)ccc4Cl)c3)s2)CC1

> 7.00
> 7.00
> 7.00
